B1: glmS ribozyme (parent)
chain: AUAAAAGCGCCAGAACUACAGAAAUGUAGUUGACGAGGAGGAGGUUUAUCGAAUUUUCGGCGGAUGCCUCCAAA

variants of: B1; experiment: self-cleavage kobs at 2500 uM GlcN6P; higher = faster cleavage; RNA array; conditions: with glucosamine-6-phosphate
Fewer inactive variants are shown than the library holds.
MEASUREMENT TYPE: self-cleavage kobs at 2500 uM GlcN6P (s⁻¹)
Answer in s⁻¹, number only, no unit symbol.

-- ask Fill blank: measured self-cleavage kobs at 2500 uM GlcN6P of the variant G41U A53G is ____.
-- reply 0.000959

-- ask Fill blank: measured self-cleavage kobs at 2500 uM GlcN6P of the variant U47C U57C is ____.
-- reply 5.62e-05

-- ask Fill blank: measured self-cleavage kobs at 2500 uM GlcN6P of the variant A15U U65A is ____.
-- reply 0.00021

-- ask Fill blank: measured self-cleavage kobs at 2500 uM GlcN6P of the variant A12G G21U U47G U65A is ____.
-- reply 6.16e-05

-- ask Fill blank: measured self-cleavage kobs at 2500 uM GlcN6P of the variant U45A G59A is ____.
-- reply 6.8e-05
